Provenance of the data: patent US20120128630A1

measuredMetric: melting point

Fill in melting point for each of the 4 molecules listed.
1. Cc1ccc(C(=O)C2=C(O)C(=O)N(c3ccc(C)nn3)C2c2ccc(OC3CCN(C)CC3)cc2)cc1 (stereo not shown)
2. Cc1ccc(N2C(=O)C(O)=C(C(=O)c3ccc(C(C)C)cc3)C2c2ccc(OC(C)(C)C)cc2)nn1 (stereo not shown)
3. Cc1ccc(N2C(=O)C(O)=C(C(=O)c3ccc(C(C)C)cc3)C2c2ccc(OC(C)C)cc2)nn1 (stereo not shown)
4. COc1ccccc1C1C(C(=O)c2ccc(C)cc2)=C(O)C(=O)N1c1ccc(C)nn1 (stereo not shown)

259 to 260 °C
276 to 277 °C
280 to 281 °C
211 to 213 °C

---

Assign melting point to each entry below.

compound	measuredMetric	result
Cc1ccc(N2C(=O)C(O)=C(C(=O)c3ccc(C(C)C)cc3)C2c2ccc(OC(C)C)cn2)nn1 (stereo not drawn)	melting point	243 to 245 °C
COCCOc1ccc(C(=O)C2=C(O)C(=O)N(c3ccc(C)nn3)C2c2ccc(OC(F)(F)F)cc2)cc1 (stereo not drawn)	melting point	216 to 219 °C

Moving on to another compound below.
May I ask what melting point has been recorded for COC(=O)c1ccc(N2C(=O)C(O)=C(C(=O)c3ccc(C)cc3)C2c2ccc(C(C)C)cc2)nc1 (stereo not drawn) ? 264 to 266 °C

---

measuredMetric: melting point

Below, 5 compounds whose answers are already recorded.
compound	melting point
Cc1ccc(C(=O)C2=C(O)C(=O)N(c3ccc(C)nn3)C2c2ccc(OC(C)C)cc2)cc1 (stereo not drawn) [Example 33]	268 to 272 °C
Cc1ccc(N2C(=O)C(O)=C(C(=O)c3ccc(-c4ccccc4)cc3)C2c2ccc(OC(F)(F)F)cc2)nn1 (stereo not drawn) [Example 79]	226 to 232 °C
CC(=O)c1ccc(C2C(C(=O)c3ccc(C(C)C)cc3)=C(O)C(=O)N2c2ccc(C)nn2)cc1 (stereo not drawn)	259 to 266 °C
CCc1ccc(C2C(C(=O)c3ccc(C(C)C)cc3)=C(O)C(=O)N2c2ccc(C)nn2)cc1 (stereo not drawn) [Example 105]	282 to 284 °C
Cc1ccc(N2C(=O)C(O)=C(C(=O)c3ccc(C(C)C)cc3)C2c2ccc(OC(F)F)cc2)nn1 (stereo not drawn) [Example 88]	263 to 265 °C

# return melting point for each item in the list
1. Cc1ccc(N2C(=O)C(O)=C(C(=O)c3ccc(C4CCCCC4)cc3)C2c2ccc(OC(F)(F)F)cc2)nn1 (stereo not drawn) [Example 125]
2. Cc1ccc(N2C(=O)C(O)=C(C(=O)c3ccc(C(C)C)cc3)C2c2ccc(Cn3cnnn3)cc2)nn1 (stereo not drawn)
3. Cc1ccc(N2C(=O)C(O)=C(C(=O)c3ccc(C(C)C)cc3)C2c2ccc(N3CCN(C)CC3)cc2)nn1 (stereo not drawn)
4. Cc1ccc(C(=O)C2=C(O)C(=O)N(c3ccc(C(C)C)nn3)C2c2ccc(C(C)C)cc2)cc1 (stereo not drawn)

["283 to 286 °C", "> 300 °C", "198 to 203 °C", "269 to 270 °C"]

---

Task for the reader: assign each of the following compounds its reported melting point.

compound	melting point
Cc1ccc(N2C(=O)C(O)=C(C(=O)c3ccc(C(C)(C)C)cc3)C2c2ccc(OC(F)(F)F)cc2)nn1 (stereo not drawn)	262 to 265 °C
Cc1ccc(N2C(=O)C(O)=C(C(=O)c3ccc(C(C)C)cc3)C2c2ccc(C(F)(F)F)cc2)nn1 (stereo not drawn)	268 to 270 °C

# evaluate next
Given Cc1ccc(N2C(=O)C(O)=C(C(=O)c3ccc(OC(F)(F)F)cc3)C2c2ccc(Cn3cnnn3)cc2)nn1 (stereo not drawn) , state its recorded melting point. > 300 °C
